molecular target: KCNQ1 (Homo sapiens); test: Two-electrode voltage clamp of WT KCNQ1 expressed in Xenopus oocytes; conditions: KCNQ1 expressed alone in oocytes; Hill fit; read-out: EC50 of G–V shift (ΔV1/2 of activation) versus CP1 concentration
readout.type: EC50 (µM)

compound.structure	endpoint.value
O=S(=O)([O-])Oc1c(-c2sc3c(ccc4cccc(Cl)c43)c2OS(=O)(=O)[O-])[nH]c2ccc(Br)cc12.[Na+].[Na+]	8.73

All values here come from paper PMC7367283.
